Test: Concentration of the compound in blood after oral administration to rats (bioassay)
Type: in vivo, Male wister rats
Conditions: rat, 4.0 hours, 50 mg/kg
Where a name gives a salt, the structure may show the parent alone.
outcome measure: concentration at 4 h (ng/mL)
Your answer is read as ng/mL, so omit the unit and give the number.

molecule	outcome measure	unit abbrev	value measured
CCOC(=O)/C=C\SC1=C(C(=O)O)N2C(=O)[C@@H](NC(=O)/C(=N\OCC(=O)O)c3csc(N)n3)[C@H]2SC1 [B]	concentration at 4 h	ng/mL	31000

Let us examine a further case.
Determine from records and report concentration at 4 h for COC(=O)/C=C\SC1=C(C(=O)O)N2C(=O)[C@@H](NC(=O)/C(=N\OCC(=O)O)c3csc(N)n3)[C@H]2SC1 [A, sodium salt]
32500
